system: NCI-H226 lung; assay: NCI-60 one-dose screen, 48 h; conditions: 10 µM unless noted
Compounds without any hit were thinned out: in the full panel of roughly 83,000, 20% have a hit. Active and inactive are the calls of the source. How the source made its calls: active means growth percent below 10; inactive means the rest.
Hi! Could you answer with just one of these? active, inactive

Ask: Assay result, entry CC(=O)Nc1ncc(S(=O)(=O)c2ccc([N+](=O)[O-])cc2)s1 — outcome?
Reply: inactive

Ask: // return assay outcome for CSc1nsc(N)n1
Reply: inactive

* * *

tested on: NCI-H522 lung; experiment: NCI-60 one-dose screen, 48 h; details: 10 µM unless noted
About 83,000 compounds went through this panel and 20% of them were active in at least one assay; those are over-represented in the sample as a whole. Activity calls are given as the source filed them. Rule for the calls: active = growth percent below 10; inactive = the rest.
A correct response names exactly one class from active, inactive

Use these answered entries as a reference point.
molecule	tgt	classification
COc1ccc(C(=O)/C(=N/Nc2ccccc2)c2ccc(OC)cc2)cc1	NCI-H522 lung	inactive
Cn1c(=O)c2nc3c(=O)n(C)c(=O)n(C)c3nc2n(C)c1=O	NCI-H522 lung	inactive
CC(=O)N(C)N=Nc1ccc(C)cc1	NCI-H522 lung	inactive

Ask: Would you mind telling me which call this test gave C1=NCCc2ccccc21 ?
Reply: inactive

Ask: Please share the test call associated with COc1ccc(Br)c2c1C(=O)CC2 .
Reply: inactive

Ask: What was the test verdict on Clc1ncnc2nc[nH]c12 ?
Reply: inactive

Ask: // param item: C=CC(=O)OC1CCC(C(C)(C)CC)CC1 (stereo unspecified) ; yields the recorded call
Reply: inactive

Ask: Recorded test outcome, item C=CCc1cc(OC)c(O)c(OC)c1
Reply: inactive

The reported numbers originate from PubChem BioAssay (NCI).
